Biological target: Muscarinic acetylcholine receptor M3 (Homo sapiens)
Conditions: Compound concentration 10 µM
Description: PDSP Primary Binding target: CHRM3 - Compounds are tested at 10 uM concentration, plate are incubated at room temperature in the dark for 90 minutes. Reaction are stopped by vacuum filtration onto 0.3% polyethyleneimine soaked filter mats using Filtermate harvester. Scintilation cocktail is then melted onto microwave-dried filters on a hot plate and the radio activity is counted in Microbia counter.
// reported inhibition per item
Reply with just the number (in %).

Looking up `Cc1c(P(=S)(c2ccccc2)c2ccccc2)n2ccccc2[n+]1C/C=C/c1ccccc1` , I found its inhibition recorded as 71

====

Biological target: Muscarinic acetylcholine receptor M1 (Homo sapiens) (UniProt P11229)
Sequence (whole entry): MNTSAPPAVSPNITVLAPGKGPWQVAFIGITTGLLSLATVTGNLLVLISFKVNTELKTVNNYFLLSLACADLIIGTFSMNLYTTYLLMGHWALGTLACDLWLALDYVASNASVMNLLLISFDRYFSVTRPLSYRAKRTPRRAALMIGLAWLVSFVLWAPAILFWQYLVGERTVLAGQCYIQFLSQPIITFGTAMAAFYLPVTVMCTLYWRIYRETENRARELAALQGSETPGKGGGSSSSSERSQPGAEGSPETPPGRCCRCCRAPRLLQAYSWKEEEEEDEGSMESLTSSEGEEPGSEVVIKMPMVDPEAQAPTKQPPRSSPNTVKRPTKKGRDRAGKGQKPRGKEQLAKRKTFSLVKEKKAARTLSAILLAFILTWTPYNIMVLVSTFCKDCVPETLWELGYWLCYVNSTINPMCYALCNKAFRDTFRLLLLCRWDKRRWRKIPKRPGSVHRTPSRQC
Conditions: Compound concentration 10 µM
Description: PDSP Primary Binding target: CHRM1 - Compounds are tested at 10 uM concentration, plate are incubated at room temperature in the dark for 90 minutes. Reaction are stopped by vacuum filtration onto 0.3% polyethyleneimine soaked filter mats using Filtermate harvester. Scintilation cocktail is then melted onto microwave-dried filters on a hot plate and the radio activity is counted in Microbia counter.
property label: inhibition

Check out these entries, answers already filled in.
NCCc1cn(S(=O)(=O)c2c(Cl)nc3sccn23)c2ccccc12    38.9%
COc1ccc(OC(F)(F)F)cc1CN[C@H]1CCCN[C@H]1c1ccccc1    13.7%

Looking up `CC1=C2C[C@H]3[C@@H](CC=C4C[C@@H](O)CC[C@@]43C)[C@@H]2CC[C@]12O[C@@H]1C[C@H](C)CN[C@H]1[C@H]2C` , I found its inhibition recorded as 22.8%

Looking up `Oc1ccc2c3c1O[C@H]1c4[nH]c5c(c4C[C@@]4(O)[C@@H](C2)N(CC2CC2)CC[C@]314)C[C@@]1(O)[C@H]2Cc3ccc(O)c4c3[C@@]1(CCN2CC1CC1)[C@H]5O4` , I found its inhibition recorded as 4.47%

meta.source: ChEMBL document CHEMBL5442219
